Every entry's value here was drawn from PubChem BioAssay AID2355.

- target desc: Serine/threonine-protein phosphatase PP1-alpha catalytic subunit (Homo sapiens) (UniProt P62136)
- Sequence (P62136 whole entry, looked up): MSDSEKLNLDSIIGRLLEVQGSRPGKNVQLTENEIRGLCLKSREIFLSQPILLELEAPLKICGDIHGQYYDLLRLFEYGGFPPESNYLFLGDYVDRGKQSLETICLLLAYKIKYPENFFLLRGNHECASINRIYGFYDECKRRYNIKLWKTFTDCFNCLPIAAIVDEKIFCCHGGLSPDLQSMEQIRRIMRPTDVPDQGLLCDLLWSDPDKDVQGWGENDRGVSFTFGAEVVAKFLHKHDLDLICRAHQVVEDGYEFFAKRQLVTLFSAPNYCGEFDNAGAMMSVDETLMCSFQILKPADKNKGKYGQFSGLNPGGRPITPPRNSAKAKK
- protocol details: human PP1 catalytic activity blockade – biochemical, fluorescence, triplicate, counter-screen for PP5 inhibitor project (AID 2355)
- study conditions: PP1 enzyme, fluorescent phosphatase substrate; at 6.7 µM; hits give high values
Some of the results follow.
measurement kind: inhibition (%)

[[record]]
compound = "O=C(C1=C[C@H](c2ccc(C(F)(F)F)cc2)C[C@H](OCc2ccc(CO)cc2)O1)N1CCN(Cc2ccccc2)CC1"
reported_measurement = 3.55

[[record]]
compound = "Cc1nnc(SCc2nc3ccccc3nc2C)s1"
reported_measurement = -2.74

[[record]]
compound = "COc1ccc(OC)c(C(=O)c2ccc(C(=O)O)cc2)c1"
reported_measurement = -5.81

[[record]]
compound = "Cc1nc(NC(CC(C)C)C(=O)O)c2nc(C)oc2n1 (stereo not given)"
reported_measurement = -4.44

[[record]]
compound = "COCCN1C=C2C(=O)C(C)(OC(=O)C3CCCC3)C(=O)C=C2C=C1c1ccsc1 (stereo not given)"
reported_measurement = 16.6

